- assay_system: Short transient receptor potential channel 5 (Homo sapiens, UniProt Q9UL62)
- Sequence (Q9UL62 whole entry): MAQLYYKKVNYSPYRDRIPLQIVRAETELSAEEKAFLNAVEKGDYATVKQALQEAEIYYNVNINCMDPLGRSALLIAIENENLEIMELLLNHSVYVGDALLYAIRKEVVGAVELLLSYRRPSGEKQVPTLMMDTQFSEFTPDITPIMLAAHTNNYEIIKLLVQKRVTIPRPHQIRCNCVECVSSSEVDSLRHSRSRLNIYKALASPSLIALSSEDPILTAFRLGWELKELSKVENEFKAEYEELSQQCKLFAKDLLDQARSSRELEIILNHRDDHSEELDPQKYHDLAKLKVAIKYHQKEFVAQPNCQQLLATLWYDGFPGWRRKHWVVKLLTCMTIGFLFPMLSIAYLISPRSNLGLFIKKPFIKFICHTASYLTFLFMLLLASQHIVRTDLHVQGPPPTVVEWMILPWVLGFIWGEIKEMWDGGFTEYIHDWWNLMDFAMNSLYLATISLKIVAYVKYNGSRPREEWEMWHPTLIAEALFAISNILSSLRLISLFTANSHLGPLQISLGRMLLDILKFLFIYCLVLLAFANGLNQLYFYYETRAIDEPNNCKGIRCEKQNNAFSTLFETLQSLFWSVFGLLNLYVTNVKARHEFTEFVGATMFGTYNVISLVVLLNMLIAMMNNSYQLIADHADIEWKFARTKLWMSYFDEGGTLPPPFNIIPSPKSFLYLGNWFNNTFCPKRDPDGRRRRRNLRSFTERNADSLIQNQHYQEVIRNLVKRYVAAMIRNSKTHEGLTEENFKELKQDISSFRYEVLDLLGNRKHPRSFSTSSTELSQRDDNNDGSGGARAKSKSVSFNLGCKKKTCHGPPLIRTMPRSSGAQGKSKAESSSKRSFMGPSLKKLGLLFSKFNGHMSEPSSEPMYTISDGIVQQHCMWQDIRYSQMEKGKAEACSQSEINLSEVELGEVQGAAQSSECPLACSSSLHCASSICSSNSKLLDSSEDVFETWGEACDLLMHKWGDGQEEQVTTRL
- assay_info: High Throughput Screening Assay: The commercially available HEK293/TREx line (Invitrogen) was stably transfected with a TRPC5 construct and screened by conventional calcium imaging to find clones with TRPC5 expression following stimulation with 1 μg/ml tetracycline. These cells were maintained in the growth medium recommended by the manufacturer supplemented with 100 μg/ml hygromycin to promote retention of the TRPC5 construct. After growing to near confluency, cells were plated at a density of Ë¿35,000 cells/well in 384 well CellBind plates (Corning) in the presence of 1 μg/ml tetracycline, and allowed to grow for 20-30 hrs. A nearly confluent monolayer resulted. Cells were then loaded with Ca2+ dye: Fura-2/AM or Fluo4/AM was added to the wells to a final concentration of 4 μM or 0.5 μM, respectively, and incubated for 80 min or 60 min, respectively, at room temperature. Supernatant was then removed from the cells by inverting plates with a sharp flick, and 25 μl Hank's Balanced Salt Solution (HBSS; 0.185 g/l D-glucose, 0.9767 g/l MgS04 (anhydrous), 0.4 g/l KCl, 0.06 g/l KH2PO4 (anhydrous), 0.35 g/l NaHCO3, 8.0 g/l NaCl, and 0.04788 g/l Na2HPO4 (anhydrous); pH 7.4) was then added to each well. Following Ë¿0.5 hour for recovery from loading, cells were assayed using the Hamamatsu FDSS 6000 system, which permitted illumination alternately at 340 nm and 380 nm for Fura-2 experiments, or at 485 nm for Fluo4 experiments. Frames were acquired at a rate of 0.2 Hz. During the assay, the plates were continuously vortexed, with pipette mixing of wells following addition of each reagent. For the screening assay, 26 μl of a diluted compound stock (at 50 μM) was added to each well for 2 minutes following the collection of a short (4 frame) baseline. 13 μl 62 mM high-Ca2+Ringer solution (4.17 ml of normal ringer (with 2 mM Ca2+) plus 5.83 ml of isotonic calcium ringer (105 mM Ca2+; in this ringer all sodium has been replaced with calcium)) was then added to each well, achieving a final concentration of 14 mM Ca2+ and 10 μM test compound. Data was collected for Ë¿3 minutes following addition of high Ca2+Ringer, where the fluorescent intensity (for Fluo4) and the F340/F380 ratio (for Fura-2) were proportional to the [Ca2+]i Negative controls consisted of HEK293/TREx TRPC5 cells exposed to high Ca2+ solution, but no compound. Positive control conditions consisted of addition of 2-APB, a promiscuous blocker of TRPC5 and other channels, to columns 23 and 24 of the plates, to a final concentration of 200 μM. The Fluo4 cell-based fluorescence assay was used to determine the intracellular Ca2+ concentration in the presence of varying drug concentration. Final concentrations of compounds tested were 20 μM, 6.667 μM, 2.222 μM, 0.741 μM, 0.247 μM, 0.082 μM, and 0.027 μM. Compounds were tested in triplicate at all concentrations.
# IC50 per entry
Respond with the bare value in nM.

{"compound": "Cc1c(-c2cccc(Cl)c2Cl)sc2c1c(=O)n(CCCO)c(=O)n2C", "assay_system": "Short transient receptor potential channel 5 (Homo sapiens, UniProt Q9UL62)", "unit_name": "nM", "IC50": 31.6}

# context switch: different compound, same IC50
[Q] Provide one value: measured IC50 of Cn1c(=O)n(CCCO)c(=O)c2c(C(O)c3ccc(Cl)cc3)c(Oc3cccc(OC(F)(F)F)c3)sc21 (configuration not stated)
[A] 194

Numbers sourced from ChEMBL document CHEMBL3886925.
